molecular target: PDGFRB (human); assay: radiometric filter-binding kinase assay, Kinase HotSpot; conditions: compound 0.5 µM; ATP 10 µM
Class true: residual activity at least 60%. Class false: residual activity below 60%.

>  <molecule>
Cc1ccc(NC(=O)c2ccc(CN3CCN(C)CC3)cc2)cc1Nc1nc(-c2cccnc2)cs1

>  <classification>
false

$$$$
>  <molecule>
O=C(Nc1ccc(Cl)cc1)c1ccccc1NCc1ccncc1

>  <classification>
false

$$$$
>  <molecule>
COc1cc2ncnc(Nc3ccc(F)c(Cl)c3)c2cc1OCCCN1CCOCC1

>  <classification>
true

$$$$
>  <molecule>
CSc1nc(-c2ccc(F)cc2)c(-c2ccnc(NC(C)c3ccccc3)c2)[nH]1 (centres undefined)

>  <classification>
true

$$$$
>  <molecule>
O=c1cc(N2CCNCC2)oc2c(-c3ccccc3)cccc12

>  <classification>
true

$$$$
>  <molecule>
NC(=O)c1ccc(N(C(N)=O)c2c(F)cccc2F)nc1-c1ccc(F)cc1F

>  <classification>
true

$$$$
>  <molecule>
CS(=O)c1ccc(-c2nc(-c3ccc(F)cc3)c(-c3ccncc3)[nH]2)cc1 (centres undefined)

>  <classification>
true

$$$$
>  <molecule>
O=C1Cc2c([nH]c3ccc([N+](=O)[O-])cc23)-c2ccccc2N1

>  <classification>
true

$$$$
>  <molecule>
CC(C)[C@H](CO)Nc1nc(Nc2cccc(Cl)c2)c2ncn(C(C)C)c2n1

>  <classification>
true

$$$$

----------
biological target: MAP3K9 (human); experiment: radiometric filter-binding kinase assay, Kinase HotSpot; conditions: compound 0.5 µM; ATP 10 µM
assay readout: residual activity

>  <molecule>
O=C1Nc2cc(Br)ccc2/C1=C1/Nc2ccccc2/C1=N\O

>  <assay readout>
residual activity

>  <experimental value>
9.21%

$$$$
>  <molecule>
Cc1cc2ncc(-c3ccccc3)nc2cc1C

>  <assay readout>
residual activity

>  <experimental value>
92.6%

$$$$
>  <molecule>
CC(C)n1cnc2c(Nc3cccc(Cl)c3)nc(NCCO)nc21

>  <assay readout>
residual activity

>  <experimental value>
27.2%

$$$$
>  <molecule>
CSc1nc(-c2ccc(F)cc2)c(-c2ccnc(NC(C)c3ccccc3)c2)[nH]1 (stereo unspecified)

>  <assay readout>
residual activity

>  <experimental value>
101%

$$$$
>  <molecule>
COc1cc2ncnc(Nc3ccc(F)c(Cl)c3)c2cc1OCCCN1CCOCC1

>  <assay readout>
residual activity

>  <experimental value>
110%

$$$$
>  <molecule>
COc1ccc(-c2cnc3c(-c4ccsc4)cnn3c2)cc1

>  <assay readout>
residual activity

>  <experimental value>
65.6%

$$$$
